System: HEK-293T
Test: Multiplex assay against HEK293T
Type: toxicity, cell-based
Settings: human, 12 h, 10 µM, compound concentration 10 uM, replicate 1
I'd be grateful if you could share measured Population Pyknosed Nuclei (%) for these entries.

What does the data say about its Population Pyknosed Nuclei (%)? Entry: CN1CCN(CCOc2cc(OC3CCOCC3)c3c(Nc4c(Cl)ccc5c4OCO5)ncnc3c2)CC1
63%

I would be grateful if you could share the reported Population Pyknosed Nuclei (%) for COc1ncc(-c2ccc3nccc(-c4ccnnc4)c3c2)cc1NS(=O)(=O)c1ccc(F)cc1F .
67%

Would you mind telling me what Population Pyknosed Nuclei (%) value was observed for CNCc1ccc(-c2cc(-c3nc(-c4ccc(S(=O)(=O)C(C)C)cc4)cnc3N)on2)cc1 ?
5%

Please give the measured Population Pyknosed Nuclei (%) for this compound: Cc1nc(-c2cn3c(n2)-c2ccc(-c4cnn(C(C)(C)C(N)=O)c4)cc2OCC3)n(C(C)C)n1
32%

Would you mind telling me what Population Pyknosed Nuclei (%) value was observed for Cc1[nH]c(/C=C2\C(=O)Nc3ccc(S(=O)(=O)N(C)c4cccc(Cl)c4)cc32)c(C)c1C(=O)N1CCN(C)CC1 ?
57%

Name the reported Population Pyknosed Nuclei (%) value associated with the compound c1cn2cc(-c3ccc4cn[nH]c4c3)nc(Nc3ccc(N4CCOCC4)cc3)c2n1
16%

Data request, read-out Population Pyknosed Nuclei (%), for COc1cc(-n2cnc3cc(-c4ccc(Cl)cc4)sc3c2=O)ccc1OCCN1CCCC1
74%

Sample CC[C@H](C)C(=O)O[C@H]1C[C@@H](C)C=C2C=C[C@H](C)[C@H](CC[C@@H]3C[C@@H](O)CC(=O)O3)[C@H]21 — what was its Population Pyknosed Nuclei (%)?
57%

Find the recorded Population Pyknosed Nuclei (%) belonging to C=CC(=O)Nc1cccc(C(=O)Nc2ccc(Nc3cc(-c4[nH]c(SC)nc4C)ccn3)cc2)c1 and report it.
51%

# Population Pyknosed Nuclei (%) lookup, item Cn1cc(-c2[nH]c3cc(NC(=O)[C@H](N)C4CCCCC4)cc4c3c2C=NNC4=O)cn1
60%

Bench note: what Population Pyknosed Nuclei (%) did CC(C)(O)CNc1ncc(-c2ccnc(Nc3ccnc(Cl)c3)n2)c(CC2CC2)n1 show?
83%

// lookup Population Pyknosed Nuclei (%) for CN(C)C(=O)/C(C#N)=C/c1ccc(-c2nc3cnc4[nH]ccc4c3n2C2CCCCC2)o1
36%

Need Population Pyknosed Nuclei (%) of Cc1c(-c2ccc(O)cc2)n(Cc2ccc(OCCN3CCCCCC3)cc2)c2ccc(O)cc12 , thanks.
77%

Given the compound Cl.N#Cc1ccc2[nH]cc(CCCCN3CCN(c4ccc5oc(C(N)=O)cc5c4)CC3)c2c1 [VILAZODONE HYDROCHLORIDE] , what is its reported Population Pyknosed Nuclei (%)?
78%

Return reported Population Pyknosed Nuclei (%); argument: C=CC(=O)Nc1ccc2ncnc(Nc3ccc(OCc4cccc(F)c4)c(Cl)c3)c2c1.Cc1ccc(S(=O)(=O)O)cc1
51%

Given the entry CNc1nc(NCc2ccc(NS(C)(=O)=O)cc2Cl)cc(-c2ccccn2)n1 , report its measured Population Pyknosed Nuclei (%).
65%

Which Population Pyknosed Nuclei (%) is reported for this compound? CN(C)CC#Cc1ccc(OCCCc2sc(N3CCc4cccc(C(=O)Nc5nc6ccccc6s5)c4C3)nc2C(=O)O)c(F)c1
49%

---

Tested on: Fibroblast
Experiment: Incucyte cell viability with human fibroblast; also: filed as whole numbers so only -1 and 0 and 1 occur
Type: toxicity, cell-based
Details: 6 h, 10 µM, compound concentration 10 uM, replicate number 1, timepoint 6 hours
outcome measure: Growth Rate
Lab note: record just the number, no unit beside it.

Checklist item: Growth Rate tested on Fibroblast, entry O=C(NCCN1CCOCC1)c1ccc2c(c1)C(=O)c1ccc(Nc3ccc(F)c(NC(=O)c4ccccc4)c3)cc1CC2 , value?
1

Item Cc1nc(-c2cn3c(n2)-c2ccc(-c4cnn(C(C)(C)C(N)=O)c4)cc2OCC3)n(C(C)C)n1 with Fibroblast - Growth Rate?
0

Request: Growth Rate, test system Fibroblast, entry CN(C)[C@@H]1CCN(c2cc(-c3ccccc3)nc3ccnn23)C1 [(R)-ZINC-3573]
0

Kindly state the measured Growth Rate obtained for Cc1nc(Nc2n[nH]c3c2CN(C(=O)N[C@H](CN(C)C)c2ccccc2)C3(C)C)c2sccc2n1 with Fibroblast.
0

Notebook entry, Fibroblast assay: Growth Rate of CCOc1cc(N2CCC(O)CC2)ccc1Nc1ncc2c(n1)N(C)c1ccccc1C(=O)N2C = ?
1

Notebook entry, Fibroblast assay: Growth Rate of CSc1ccc(C(=O)N[C@@H]2CCCC[C@@H]2NC(=O)CNC(=O)c2cc(C(F)(F)F)ccc2NC(=O)NC(C)C)cc1 = ?
1

Fill in the recorded Growth Rate for this compound, with Fibroblast as test system: O=C(NCCCN1CCOC1=O)c1cnc(NCc2cc(Br)ccc2Br)nc1NC1CCCC1
0

Any idea what Growth Rate came out for N#Cc1c(O)nc(SCc2cccc(F)c2F)nc1C1CC1 on Fibroblast?
1

Lab request: please report Growth Rate under test system Fibroblast for COc1ccc2cc(OCC3(C(=O)O)CN(C(=O)c4ccc(F)cc4)C3)ccc2c1
0

Query the reported Growth Rate for Fibroblast; item: COc1ccc(C2(O)OC(=O)C(c3ccc4c(c3)OCO4)=C2Cc2cc(OC)c(OC)c(OC)c2)cc1 (configuration not stated)
0

Field: Growth Rate (Fibroblast). Entry: O=C1NCN(c2ccccc2)C12CCN(CCCOc1ccc(F)cc1)CC2 [SPIRAMIDE]
0

Entry CS(=O)(=O)NC[C@H]1CC[C@H](Nc2nc3c(s2)CCSc2ccccc2-3)CC1 , system Fibroblast: what Growth Rate was measured?
0

Provide value of Growth Rate for this record tested with Fibroblast: CN(C)C(=O)c1ccc(-c2cc(C(=O)N[C@@H]3CCc4ccccc43)no2)cc1O
1

Give Growth Rate (Fibroblast) of the following compound: OC1(c2ccc(Cl)cc2)CCN(Cc2c[nH]c3ccccc23)CC1
0

I'm curious: which Growth Rate was measured for CNCCN1CCC(OCc2ccccc2)CC1 tested on Fibroblast?
0

Under Fibroblast: Growth Rate value of COc1ncc(-c2ccc3nccc(-c4ccnnc4)c3c2)cc1NS(=O)(=O)c1ccc(F)cc1F ?
0

Notebook entry, Fibroblast assay: Growth Rate of O=C(/C=C/N1C[C@H]2C[C@@H]1CN2c1ccccn1)c1ccccc1O = ?
1

---

System: U2OS
Experiment: Multiplex assay against U2OS
Format: toxicity, cell-based
Conditions: human, 24 h, 10 µM, compound concentration 10 uM, replicate 2
Assignment: determine reported Population Apoptotic (%) for the given compounds.
Give your result in % as a bare value.

What measured Population Apoptotic (%) is associated with Cc1cc(C)cc(-c2cnc3cc(Cl)c(-c4cccc(O)c4)cc3c2OCCCN)c1 on U2OS?
93

Recorded Population Apoptotic (%) for CN(C)CC#Cc1ccc(OCCCc2sc(N3CCc4cccc(C(=O)Nc5nc6ccccc6s5)c4C3)nc2C(=O)O)c(F)c1 [A-1155463] with U2OS, please?
81

Hello, I am looking for reported Population Apoptotic (%) with U2OS for CN1CCN(CCOc2cc(OC3CCOCC3)c3c(Nc4c(Cl)ccc5c4OCO5)ncnc3c2)CC1 [SARACATINIB] . Could you help?
85

Requested read-out Population Apoptotic (%), target or system U2OS, entry CCN(CC)CCCCNc1ncc2cc(-c3cc(OC)cc(OC)c3)c(NC(=O)NC(C)(C)C)nc2n1 [PD-173074]
45

---

System: U2OS
Assay: Multiplex assay against U2OS
Type: toxicity, cell-based
Conditions: human, 24 h, 1 µM, compound concentration 1 uM, replicate 1
In plain terms, low Population Membrane Permeable-Phenotype (%), meaning strictly below 7%, gives Satisfied, and everything else gives Not satisfied.

Is Population Membrane Permeable-Phenotype (%) of CN1CCC[C@@H]1CCO[C@](C)(c1ccccc1)c1ccc(Cl)cc1.O=C(O)/C=C/C(=O)O [CLEMASTINE FUMARATE] strictly below 7%?
Satisfied

Please check: Population Membrane Permeable-Phenotype (%) for Cc1nc(Nc2n[nH]c3c2CN(C(=O)N[C@H](CN(C)C)c2ccccc2)C3(C)C)c2sccc2n1 [PF-03758309] , strictly under 7% or not?
Not satisfied

Answer whether the compound Cl.N#Cc1ccc2[nH]cc(CCCCN3CCN(c4ccc5oc(C(N)=O)cc5c4)CC3)c2c1 [VILAZODONE HYDROCHLORIDE] has Population Membrane Permeable-Phenotype (%) strictly less than 7%
Satisfied

Identify whether the compound C=CC(=O)Nc1cc2c(Nc3ccc(F)c(Cl)c3)ncnc2cc1OCCCN1CCOCC1.Cl.Cl [CANERTINIB DIHYDROCHLORIDE] records Population Membrane Permeable-Phenotype (%) below 7%.
Not satisfied

---

Test system: HEK-293T
Experiment: Multiplex assay against HEK293T
Type: toxicity, cell-based
Conditions: human, 24 h, 10 µM, compound concentration 10 uM, replicate 2
outcome measure: Population Normal (%)
I only need the number, in %, no unit after it.

API: value(readout=Population Normal (%), system=HEK-293T) for record COc1cc(-n2cnc3cc(-c4ccc(Cl)cc4)sc3c2=O)ccc1OCCN1CCCC1
92

Missing value: Population Normal (%), HEK-293T, entry C[C@@H](NCCCc1cccc(C(F)(F)F)c1)c1cccc2ccccc12.Cl [CINACALCET HYDROCHLORIDE] . Fill in?
91

Lab note: need Population Normal (%) with HEK-293T for entry OC1(c2ccc(Cl)cc2)CCN(Cc2c[nH]c3ccccc23)CC1 , please look it up.
91

Record lookup: for HEK-293T, what Population Normal (%) belongs to Cc1csc2c(N[C@@H](C)CN3CCN(S(=O)(=O)c4ccc(Cl)c(Cl)c4)CC3)ncnc12 ?
91

Observed Population Normal (%) on HEK-293T for CN1CCCC(n2nc(Cc3ccc(Cl)cc3)c3ccccc3c2=O)CC1.Cl (stereo unspecified) [AZELASTINE HYDROCHLORIDE] , please.
92

# returns recorded Population Normal (%) (system: HEK-293T) for Cc1nc(-c2ccc(-c3ccc(C(=O)N4CCc5cc6c(cc54)C4(CCN(C)CC4)CO6)cc3)c(C)c2)no1
88
